Tested on: 817829-284-R-J1-PDC complex spheroid viability;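 also: spheroids exposed to compounds for 7 days; 100% = DMSO vehicle-treated spheroids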
Experiment: Anticancer human tumor 817829-284-R-J1-PDC patient-derived colon adenocarcinoma cell line growth inhibition [POLQ]
Conditions: second compound 0.0316 µM; first compound 0.1 µM; hits give low values
assay metric: viability, T/C (%)
Write the answer as a number in %, unit excluded.

compound	measurement
C=CCn1c(=O)c2cnc(Nc3ccc(N4CCN(C)CC4)cc3)nc2n1-c1cccc(C(C)(C)O)n1 + Nc1ccc(C#CCN(C(=O)Cc2ncc(C(F)(F)F)cc2C(F)(F)F)c2ccc(F)cc2)nn1	72.6
COc1ccc([C@@H](O)c2cc(-c3ncnc4cc(N5CCOCC5)ccc34)c(F)cc2Cl)nn1 + COC1C(OC(N)=O)C(O)C(Oc2ccc3c(O)c(NC(=O)c4ccc(O)c(CC=C(C)C)c4)c(=O)oc3c2C)OC1(C)C	61.9

Turning to the following compound.
(Q) Query viability, T/C on 817829-284-R-J1-PDC complex spheroid viability for CC1COCCN1c1cc(C2(S(C)(=N)=O)CC2)nc(-c2ccnc3[nH]ccc23)n1 (stereo not drawn) + Cc1cccc(N(C)C(=O)C2C(O)CCN2c2nc(C)cc(C(F)(F)F)c2C#N)c1
(A) 82.1

Source: PubChem BioAssay AID1963839
